Molecular target: RING1B-BMI1 (Homo sapiens, UniProt Q99496)
Sequence (Q99496 whole entry): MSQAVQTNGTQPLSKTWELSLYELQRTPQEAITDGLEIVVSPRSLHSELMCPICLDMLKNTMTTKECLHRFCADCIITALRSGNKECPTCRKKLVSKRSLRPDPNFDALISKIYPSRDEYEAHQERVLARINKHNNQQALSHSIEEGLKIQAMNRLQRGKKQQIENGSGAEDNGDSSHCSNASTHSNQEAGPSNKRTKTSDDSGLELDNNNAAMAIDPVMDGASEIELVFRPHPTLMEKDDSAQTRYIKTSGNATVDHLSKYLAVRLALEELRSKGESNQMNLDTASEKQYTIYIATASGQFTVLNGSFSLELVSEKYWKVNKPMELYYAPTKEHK
Sequence (P35226 whole entry partner): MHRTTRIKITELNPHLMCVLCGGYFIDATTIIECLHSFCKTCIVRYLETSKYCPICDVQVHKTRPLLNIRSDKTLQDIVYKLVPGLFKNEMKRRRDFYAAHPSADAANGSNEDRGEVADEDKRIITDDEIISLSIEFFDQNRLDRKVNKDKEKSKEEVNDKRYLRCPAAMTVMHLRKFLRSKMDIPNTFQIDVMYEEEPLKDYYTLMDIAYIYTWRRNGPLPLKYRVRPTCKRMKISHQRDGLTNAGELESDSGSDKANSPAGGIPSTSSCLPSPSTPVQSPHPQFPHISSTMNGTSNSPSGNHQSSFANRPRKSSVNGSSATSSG
Test: KD classes of Table A (direct binding to Ring1B-Bmi1)
Details: class given in Table A
pKd: −log10 of the molar value.
parameter_measured: pKd

Recorded pKd, per entry:
structure_as_smiles	system_tested	pKd
Cc1cc(C(=O)O)[nH]c1-c1cccc2[nH]ccc12	RING1B-BMI1 (Homo sapiens, UniProt Q99496)	< 4.00
O=C(O)c1ccc(-c2cccc3c2ccn3CCO)[nH]1	RING1B-BMI1 (Homo sapiens, UniProt Q99496)	< 4.00
CCc1c(-c2cccc3[nH]ccc23)[nH]c(C(=O)O)c1-c1cc([N+](=O)[O-])ccc1Cl	RING1B-BMI1 (Homo sapiens, UniProt Q99496)	4.30 to 4.70
CC(C)c1c(-c2cccc3[nH]ccc23)[nH]c(C(=O)O)c1-c1c(Cl)ccc2[nH]ccc12	RING1B-BMI1 (Homo sapiens, UniProt Q99496)	> 4.70
CC(C)c1c(-c2cc(F)cc3[nH]ccc23)[nH]c(C(=O)O)c1-c1cccc2[nH]c(-c3nccs3)cc12	RING1B-BMI1 (Homo sapiens, UniProt Q99496)	> 4.70
CC(C)c1c(-c2cc(F)cc3[nH]ccc23)[nH]c(C(=O)O)c1-c1cccc2[nH]c(-c3nnn[nH]3)cc12	RING1B-BMI1 (Homo sapiens, UniProt Q99496)	> 4.70
CC(C)c1c(-c2cc(F)cc3[nH]ccc23)[nH]c(C(=O)O)c1-c1c(C(F)(F)F)cnc2[nH]ccc12	RING1B-BMI1 (Homo sapiens, UniProt Q99496)	> 4.70

Now look at this entry.
Fill in reported pKd for this entry: COC(=O)c1ccc(-c2ccccc2)[nH]1
< 4.00
